# measurementTarget: DYRK1A (Homo sapiens, UniProt Q13627)
# Construct: purchased Carna Biosciences, Inc. 04-130
# assayOverview: Inhibition test on activity of DYRK family, mobility shift assay (MSA): DYRK1A
# Type: biochemical
# conditionSummary: MSA, FITC-labeled DYRKtide peptide, ATP 100 μM; read-out: Inhibitory activity DYRK 1A (IC50 class)
pIC50: −log10 of the molar value.
Recorded pIC50 values for a group of compounds are listed next.

[[record]]
compound = "CC[C@H]1C[C@@H]2[C@H](CO1)NC(=O)N2c1nc2c3c(ccc2s1)OCC3"
recordedmetric = "pIC50"
recordedresult = "> 8.00"

[[record]]
compound = "CN1CC[C@@H]2NC(=O)N(c3nc4c5c(ccc4s3)OCC5)[C@@H]2C1 (single isomer, unassigned) [Example 28]"
recordedmetric = "pIC50"
recordedresult = "7.00 to 8.00"

[[record]]
compound = "C[C@H]1C[C@@H]2[C@H](CO1)NC(=O)N2c1nc2c3c(ccc2s1)OCCO3"
recordedmetric = "pIC50"
recordedresult = "> 8.00"

[[record]]
compound = "O=C1N[C@H]2CCNCC[C@H]2N1c1nc2c3c(ccc2s1)OCC3"
recordedmetric = "pIC50"
recordedresult = "7.00 to 8.00"

[[record]]
compound = "O=C1NC2CCNCC2N1c1nc2c3c(ccc2s1)OCCO3 (centres unmarked)"
recordedmetric = "pIC50"
recordedresult = "7.00 to 8.00"


## Input Give a short answer stating reported pIC50 for O=C1N[C@@H]2CCN(C3CC3)C[C@@H]2N1c1nc2c3c(ccc2s1)OCCO3 (single isomer, unassigned) [Example 33] .
## Output 6.00 to 7.00

## Input Give a short answer stating reported pIC50 for COC(=O)[C@H]1C[C@@H]2[C@H](CO1)NC(=O)N2c1nc2c3c(ccc2s1)OCC3 .
## Output 7.00 to 8.00

## Input Give a short answer stating reported pIC50 for C#C[C@H]1C[C@@H]2[C@H](CO1)NC(=O)N2c1nc2c3c(ccc2s1)OCC3 .
## Output > 8.00
